System: CFPAC-1
Assay: Induction of p16 gene expression in human Cf-Pac-1 cells at 1 uM after 8 days by real time PCR
Type: functional, cell-based
Calls of active or inactive are those of the source. The rule behind the calls is not given here.

{"columns": ["Compound", "Target Or Test System", "Activity"],
 "data": [
  ["CC(C)(NP(=O)(OC[C@H]1O[C@@H](n2cccnc2=O)C[C@@H]1O)Oc1cccc2ccccc12)C(=O)OCc1ccccc1 (some centres undefined)", "CFPAC-1", "inactive"],
  ["CC(C)(NP(=O)(OC[C@H]1O[C@@H](n2cccnc2=O)C[C@@H]1O)Oc1ccccc1)C(=O)OCc1ccccc1 (some centres undefined)", "CFPAC-1", "inactive"],
  ["COC(=O)[C@H](C)NP(=O)(OC[C@H]1O[C@@H](n2cccnc2=O)C[C@@H]1O)Oc1ccccc1 (some centres undefined)", "CFPAC-1", "inactive"],
  ["C[C@H](NP(=O)(OC[C@H]1O[C@@H](n2cccnc2=O)[C@@H](F)[C@@H]1O)Oc1ccccc1)C(=O)OCc1ccccc1 (some centres undefined)", "CFPAC-1", "inactive"]
]}

Sourced from ChEMBL document CHEMBL1140219
